Numbers sourced from the kinase profiling compilation of Christmann-Franck et al. (2016).

Give residual activity for every item shown.
- system: RPS6KA6 KD1 KD2 (human)
- method-notes: radiometric filter-binding kinase assay, Kinase HotSpot
- experimental-conditions: compound 0.5 µM; ATP 10 µM
Include the unit right after the number.

Request: Lab note: need residual activity with RPS6KA6 KD1 KD2 (human) for entry "O=C1NC(=O)/C(=C/c2ccc3c(c2)OC(F)(F)O3)S1" , please look it up.
Response: 96.5%

Request: # returns recorded residual activity (system: RPS6KA6 KD1 KD2 (human)) for "CC(C)N(CCC(=O)c1ccc2ccccc2c1)Cc1ccccc1"
Response: 97.4%

Request: Kindly state the measured residual activity obtained for "CNC(=O)c1cc(Oc2ccc(NC(=O)Nc3ccc(Cl)c(C(F)(F)F)c3)cc2)ccn1" with RPS6KA6 KD1 KD2 (human).
Response: 97.3%

Request: Lab note: need residual activity for "CCN(CC)C(=O)c1ccc(Nc2nc(OCC3CCCCC3)c3nc[nH]c3n2)cc1" on RPS6KA6 KD1 KD2 (human), anyone have it?
Response: 46.2%

Request: Lookup: residual activity / RPS6KA6 KD1 KD2 (human) / "Cc1ccc(Nc2nccc(N(C)c3ccc4c(C)n(C)nc4c3)n2)cc1S(N)(=O)=O"
Response: 96.8%

Request: Param readout = residual activity; param system = RPS6KA6 KD1 KD2 (human); param query = "Nc1ncnc2[nH]nc(Nc3ccc(F)cc3)c12" ; response: value
Response: 71.7%

Request: Record lookup: for RPS6KA6 KD1 KD2 (human), what residual activity belongs to "CCN(CC)CCNC(=O)c1c(C)[nH]c(/C=C2\C(=O)Nc3ccc(Cl)cc32)c1C" ?
Response: 10.5%

Request: Recall the recorded residual activity for "Nc1cccc(-c2cc3c(Oc4cccc(O)c4)ncnc3[nH]2)c1" with RPS6KA6 KD1 KD2 (human) and state it.
Response: 95.4%

Request: Give RPS6KA6 KD1 KD2 (human) residual activity for "CC[n+]1c(/C=C/N(C)c2ccccc2)n(-c2ccccc2)c2ccc(-c3nc4ccccc4s3)cc21"
Response: 96%

Request: Form field: residual activity recorded for "Cc1[nH]c(/C=C2\C(=O)Nc3ccc(S(=O)(=O)N(C)c4cccc(Cl)c4)cc32)c(C)c1C(=O)N1CCN(C)CC1" with RPS6KA6 KD1 KD2 (human) (enter value)
Response: 67.8%

Request: Request body: readout residual activity, system RPS6KA6 KD1 KD2 (human), query "O=C1NC(=O)c2c1c1c3ccccc3n3c1c1c2c2ccccc2n1C1CCC3O1" . Return the value.
Response: 1.08%

Request: Could you share what residual activity was measured for "COc1cc2ncnc(Nc3cccc(Cl)c3)c2cc1OC" , tested on RPS6KA6 KD1 KD2 (human)?
Response: 90.5%

Request: Observed residual activity on RPS6KA6 KD1 KD2 (human) for CO[C@H]1CC2CC[C@@H](C)[C@@](O)(O2)C(=O)C(=O)N2CCCC[C@H]2C(=O)OC([C@H](C)C[C@@H]2CC[C@@H](O)[C@H](OC)C2)CC(=O)[C@H](C)/C=C(\C)[C@@H](O)[C@@H](OC)C(=O)[C@H](C)C[C@H](C)/C=C/C=C/C=C/1C (stereo not given in full) , please.
Response: 118%

Request: // map "Cc1ccc(NC2=CC(=O)c3sc(C)nc3C2=O)cc1" to recorded residual activity (system: RPS6KA6 KD1 KD2 (human))
Response: 73.4%

Request: Provide the documented residual activity with RPS6KA6 KD1 KD2 (human) as the system for "c1ccc(-c2n[nH]cc2-c2ccnc3ccccc23)nc1"
Response: 112%

Request: What reported residual activity corresponds to "c1ccc(-c2n[nH]c3c2oc2ccccc23)cc1" on RPS6KA6 KD1 KD2 (human)?
Response: 107%

Request: API: value(readout= residual activity, system= RPS6KA6 KD1 KD2 (human), query= "O=S(=O)(c1cccc2cnccc12)N1CCCNCC1" )
Response: 94%

Request: Find the measured residual activity: item "O=C1NC(=O)C(c2cn(CCCn3ccnc3)c3ccccc23)=C1Nc1ccccc1" , target or system RPS6KA6 KD1 KD2 (human).
Response: 2%

Request: // fetch RPS6KA6 KD1 KD2 (human) residual activity for "O=C(Nc1cccc(Nc2nccc(Nc3cccc(C(F)(F)F)c3)n2)c1)C1CC1"
Response: 89.5%

Request: What measured residual activity is associated with "O=C1Nc2ccc(Cl)cc2/C1=C/c1cc(Cl)c(O)c(Cl)c1" on RPS6KA6 KD1 KD2 (human)?
Response: 78.5%
